target: MK2 (Homo sapiens, UniProt P49137); experiment: MK2 degradation in human THP-1 monocytic cells (MSD, 24 h); format: cell-based; set-up: endogenous in cells; settings: THP-1 cells, read-out: MK2 MSD THP-1 degradation 24 h GMean External Abs DC50
Sequence (P49137 whole entry): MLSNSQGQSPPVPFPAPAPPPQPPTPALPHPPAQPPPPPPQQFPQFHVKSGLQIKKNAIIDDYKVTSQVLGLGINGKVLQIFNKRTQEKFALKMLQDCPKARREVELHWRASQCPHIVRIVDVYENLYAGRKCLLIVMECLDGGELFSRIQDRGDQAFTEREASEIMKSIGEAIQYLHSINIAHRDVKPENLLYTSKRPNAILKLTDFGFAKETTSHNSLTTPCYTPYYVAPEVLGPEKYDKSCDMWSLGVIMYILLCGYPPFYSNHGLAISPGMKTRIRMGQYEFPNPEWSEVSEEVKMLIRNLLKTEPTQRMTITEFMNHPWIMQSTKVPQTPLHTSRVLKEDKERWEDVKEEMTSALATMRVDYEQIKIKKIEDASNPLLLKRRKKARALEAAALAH
parameter.measured: DC50

C[C@@H]1CNc2c(sc3ccc4nc(-c5ccc(N6CCC(CN7CCN(c8ccc9c(c8)CN(C8CCC(=O)NC8=O)C9=O)CC7)CC6)cc5)ccc4c23)C(=O)N1 (some centres unmarked) ... 1 to 10 nM
Cn1c(=O)n(C2CCC(=O)NC2=O)c2ccc(CCCCCCN3CC4(CCN(c5ccc6c(c5)Cn5cc(-c7ccc(F)cc7)cc5-c5nccn5-6)C4)C3)cc21 (centres unmarked) ... > 100 nM
C[C@@H]1CNc2c(sc3ccc4nc(-c5ccc(C#CCCNC(=O)CCCCCCCc6ccc7c(c6)n(C)c(=O)n7C6CCC(=O)NC6=O)cc5)ccc4c23)C(=O)N1 (some centres unmarked) ... 1 to 10 nM
C[C@@H]1CNc2c(sc3ccc4nc(-c5ccc(N6CCN(C[C@H]7CCN(c8ccc9c(c8)n(C)c(=O)n9C8CCC(=O)NC8=O)C7)CC6)cc5)ccc4c23)C(=O)N1 (some centres unmarked) ... < 1 nM
Cn1c(=O)n(C2CCC(=O)NC2=O)c2cccc(CCN3CCN(c4ccc(-c5nccc(-c6cc7c([nH]6)C6(CC6)CNC7=O)c5F)cc4)CC3)c21 (centres unmarked) ... > 100 nM
C[C@@H]1CNc2c(sc3ccc4nc(-c5cccc(C6CCN(CCN7CCC(CCc8cccc9c8n(C)c(=O)n9C8CCC(=O)NC8=O)CC7)CC6)c5)ccc4c23)C(=O)N1 (some centres unmarked) [Compound I-104] ... 1 to 10 nM
C[C@@H]1CNc2c(sc3ccc4nc(-c5cnc(N6CCN(CC7CCN(c8cccc9c8n(C)c(=O)n9C8CCC(=O)NC8=O)CC7)CC6)nc5)ccc4c23)C(=O)N1 (some centres unmarked) ... < 1 nM
O=C1CCN(c2cncc3c(N4CCC(CN5CCN(c6ccc(-c7cc(-c8cc9c([nH]8)CCNC9=O)ccn7)cc6)CC5)CC4)cccc23)C(=O)N1 ... 10 to 100 nM
C[C@@H]1CN(C)c2c(sc3ccc4nc(-c5ccc(N6CCN(CCc7cccc8c7n(C)c(=O)n8C7CCC(=O)NC7=O)CC6)nc5)ccc4c23)C(=O)N1 (some centres unmarked) ... 1 to 10 nM
Cn1c(=O)n(C2CCC(=O)NC2=O)c2ccc(N3CCC(CN4CCN(c5ccc6oc(-c7cc(Nc8ccnc(N)n8)cc8cn[nH]c78)cc6c5)CC4)CC3)cc21 (centres unmarked) ... > 100 nM

Next compound, DC50 to be filled in.
Problem: Name the recorded DC50 of the item Cn1c(=O)n(C2CCC(=O)NC2=O)c2ccc(CCCN3CCN(c4ccc(-c5cc(-c6cc7c([nH]6)C6(CC6)CNC7=O)ccn5)cc4)CC3)cc21 (centres unmarked) in your answer.
Solution: 10 to 100 nM

* * *

biological target: MK2 (Homo sapiens, UniProt P49137); assay: MK2 degradation in human THP-1 monocytic cells (MSD, 24 h); format: cell-based; design: endogenous in cells; conditions: THP-1 cells, read-out: MK2 MSD THP-1 degradation 24 h GMean External Abs DC50
Measured DC50 by item

Take a look at these entries with their results.
C[C@@H]1Cc2[nH]c(-c3ccnc(-c4ccc(N5CCN(CC6CCN(c7cccc8c7n(C)c(=O)n8C7CCC(=O)NC7=O)CC6)CC5)cc4)c3)cc2C(=O)N1 (some centres unmarked) ... < 0.001 µM
C[C@@H]1CNc2c(sc3ccc4nc(-c5ccc(N6CCN(CCCc7ccc8c(c7)n(C)c(=O)n8C7CCC(=O)NC7=O)CC6)nc5)ccc4c23)C(=O)N1 (some centres unmarked) ... < 0.001 µM
Cn1c(=O)n(C2CCC(=O)NC2=O)c2ccc(N3CC(CN4CCN(c5ccc(-c6nccc(-c7cc8c([nH]7)C7(CC7)CNC8=O)n6)cc5)CC4)C3)cc21 (centres unmarked) ... < 0.001 µM

Problem: Name the recorded DC50 of the item C[C@@H]1CNc2c(sc3ccc4nc(-c5cccc(C#CCNC(=O)COCCOCCc6cccc7c6n(C)c(=O)n7C6CCC(=O)NC6=O)c5)ccc4c23)C(=O)N1 (some centres unmarked) in your answer.
Solution: 0.001 to 0.01 µM

Problem: Name the recorded DC50 of the item COc1cc(-c2ccc3c(ccc4sc5c(c43)NC[C@@H](C)NC5=O)n2)c(C)cc1N1CCN(CC2CCN(c3ccc4c(c3)n(C)c(=O)n4C3CCC(=O)NC3=O)CC2)CC1 (some centres unmarked) in your answer.
Solution: 0.01 to 0.1 µM

Problem: Name the recorded DC50 of the item Cn1c(=O)n(C2CCC(=O)NC2=O)c2ccc(CCN3CCN(c4ccc(-c5cc(-c6cc7c([nH]6)C6(CC6)CNC7=O)ccn5)cc4)CC3)cc21 (centres unmarked) in your answer.
Solution: > 0.1 µM

Problem: Name the recorded DC50 of the item C[C@@H]1CNc2c(sc3ccc4nc(-c5cccc(N6CCN(CCCCCCCCc7ccc8c(c7)n(C)c(=O)n8C7CCC(=O)NC7=O)CC6)c5)ccc4c23)C(=O)N1 (some centres unmarked) in your answer.
Solution: 0.001 to 0.01 µM

Problem: Name the recorded DC50 of the item C[C@@H]1CNc2c(sc3ccc4nc(N5CCCN(CCC6CCN(c7ccc8c(c7)n(C)c(=O)n8C7CCC(=O)NC7=O)CC6)CC5)ccc4c23)C(=O)N1 (some centres unmarked) in your answer.
Solution: 0.001 to 0.01 µM

Problem: Name the recorded DC50 of the item C[C@@H]1CNc2c(sc3ccc4nc(-c5cccc(N6CCN(C(=O)COCCOCCc7cccc8c7n(C)c(=O)n8C7CCC(=O)N(C)C7=O)CC6)c5)ccc4c23)C(=O)N1 (some centres unmarked) in your answer.
Solution: > 0.1 µM

Problem: Name the recorded DC50 of the item CCc1cc(-c2cc(-c3cc4c([nH]3)CCNC4=O)ccn2)cc(CC)c1N1CCN(CC2CCN(c3ccc4c(c3)n(C)c(=O)n4C3CCC(=O)NC3=O)CC2)CC1 (centres unmarked) in your answer.
Solution: > 0.1 µM

Problem: Name the recorded DC50 of the item C[C@@H]1CNc2c(sc3ccc4nc(N5CCC(N6CCC7(CCN(c8ccc9c(c8)n(C)c(=O)n9C8CCC(=O)NC8=O)CC7)C6)CC5)ccc4c23)C(=O)N1 (some centres unmarked) in your answer.
Solution: < 0.001 µM
